Experiment Notes: Clearance in human hepatocyte
Format: ADME, cell-based
Experimental Context: hepatocytes
Endpoint Label: CLhep predicted (mL/min/kg)
Numeric answer only, unit mL/min/kg assumed.

Cc1nc2cnc(Nc3ccnc(N4CC[C@H](O)[C@H](F)C4)n3)cc2n1C(C)C (racemic); 9
CC(C)n1nc(N2CCC(O)CC2)c2cnc(Nc3ccnc(-c4cnn(S(=O)(=O)C5CC5)c4)n3)cc21; 7.7
CC(C)n1nc(N2CC(CO)C2)c2cnc(Nc3ccnc(-c4cnn(S(=O)(=O)C5CC5)c4)n3)cc21; 13
CC(C)c1nn(C(C)C)c2cc(Nc3ccnc(-c4cnn(S(=O)(=O)C5CC5)c4)n3)ncc12; 15
CC(C)n1nc(N)c2cnc(Nc3ccnc(-c4cnn(S(=O)(=O)C5CC5)c4)n3)cc21; 8.4

# next molecule below
Form: molecule = CC[C@H](C)n1nc(N2CC(C(C)(C)O)C2)c2cnc(Nc3ccnc(-c4cnn(S(=O)(=O)C5CC5)c4)n3)cc21 ; CLhep predicted = 2.7

* * *

Study System: Epidermal growth factor receptor (Homo sapiens)
Experiment Notes: Inhibition of EGFR autophosphorylation in human NCI-H292 cells harboring harboring wild type EGFR preincubated for 60 mins followed by EGF stimulation and measured after 8 mins by SULFO-TAG based electrochemiluminescent assay
Endpoint Label: IC50 (nM)
Numeric answer only, unit nM assumed.

As a guide, the following entries are already answered.
CC(C)n1nc(N2CCOCC2)c2cnc(Nc3ccnc(-c4cnn(S(=O)(=O)C5CC5)c4)n3)cc21; 850
CC[C@@H](C)n1nc(N2CC(C(C)(C)O)C2)c2cnc(Nc3ccnc(-c4cnn(S(=O)(=O)C5CC5)c4)n3)cc21; 580

# next molecule below
Form: molecule = CC(C)n1nc(N2CC(CO)C2)c2cnc(Nc3ccnc(-c4cnn(S(=O)(=O)C5CC5)c4)n3)cc21 ; IC50 = 96

* * *

Let's look at some compounds and their measured IC50.
Study System: Epidermal growth factor receptor (Homo sapiens)
Experiment Notes: Inhibition of EGFR autophosphorylation in human NCI-H292 cells harboring harboring wild type EGFR preincubated for 60 mins followed by EGF stimulation and measured after 8 mins by SULFO-TAG based electrochemiluminescent assay
Numeric answer only, unit nM assumed.

CC(C)n1nc(N2CC(C(C)(C)O)C2)c2cnc(Nc3ccnc(-c4cnn(S(=O)(=O)C5CC5)c4)n3)cc21; 210
CC(C)n1nc(N)c2cnc(Nc3ccnc(-c4cnn(S(=O)(=O)C5CC5)c4)n3)cc21; 3900

Form: compound = CC[C@H](C)n1nc(N2CC(C(C)(C)O)C2)c2cnc(Nc3ccnc(-c4cnn(S(=O)(=O)C5CC5)c4)n3)cc21 ; IC50 = 218

* * *

Experiment Notes: Aqueous kinetic solubility of compound in PBS buffer at pH 7.4 at 100 uM incubated for 24 hrs by LC/CLND analysis
Format: physicochemical
Experimental Context: read-out: Kinetic_solubility
Let's look at some compounds and their measured solubility kinetic at 24 h, 100 µM.

As a guide, the following entries are already answered.
CC(C)n1cc(C(=O)NC2CCOCC2)c2cnc(Nc3ccnc(-c4cnn(S(=O)(=O)C5CC5)c4)n3)cc21; 11 µM
CC(C)n1nc(N)c2cnc(Nc3ccnc(-c4cnn(S(=O)(=O)C5CC5)c4)n3)cc21; 2 µM
CC(C)c1nn(C(C)C)c2cc(Nc3ccnc(-c4cnn(S(=O)(=O)C5CC5)c4)n3)ncc12; < 1 µM

Form: compound = CC(C)n1cc(C(N)=O)c2cnc(Nc3ccnc(-c4cnn(S(=O)(=O)C5CC5)c4)n3)cc21 ; solubility kinetic at 24 h, 100 µM = < 1 µM

Form: compound = CC[C@H](C)n1nc(N2CC(C(C)(C)O)C2)c2cnc(Nc3ccnc(-c4cnn(S(=O)(=O)C5CC5)c4)n3)cc21 ; solubility kinetic at 24 h, 100 µM = 2 µM

Form: compound = CC(C)n1nc(N2CC(C(C)(C)O)C2)c2cnc(Nc3ccnc(-c4cnn(S(=O)(=O)C5CC5)c4)n3)cc21 ; solubility kinetic at 24 h, 100 µM = < 1 µM

Form: compound = CC(C)n1cc(C(=O)NC2COC2)c2cnc(Nc3ccnc(-c4cnn(S(=O)(=O)C5CC5)c4)n3)cc21 ; solubility kinetic at 24 h, 100 µM = 7 µM

Form: compound = CC[C@@H](C)n1nc(N2CC(C(C)(C)O)C2)c2cnc(Nc3ccnc(-c4cnn(S(=O)(=O)C5CC5)c4)n3)cc21 ; solubility kinetic at 24 h, 100 µM = 2 µM

Form: compound = CC(C)n1nc(N2CC(CO)C2)c2cnc(Nc3ccnc(-c4cnn(S(=O)(=O)C5CC5)c4)n3)cc21 ; solubility kinetic at 24 h, 100 µM = 3 µM

Form: compound = CC(C)n1nc(N2CCOCC2)c2cnc(Nc3ccnc(-c4cnn(S(=O)(=O)C5CC5)c4)n3)cc21 ; solubility kinetic at 24 h, 100 µM = 1 µM

Form: compound = COC1CCN(c2nccc(Nc3cc4c(cn3)c(C(N)=O)cn4C(C)C)n2)CC1 ; solubility kinetic at 24 h, 100 µM = 3 µM

Form: compound = CC(C)n1nc(N2CCC(O)CC2)c2cnc(Nc3ccnc(-c4cnn(S(=O)(=O)C5CC5)c4)n3)cc21 ; solubility kinetic at 24 h, 100 µM = 1 µM

* * *

Study System: Epidermal growth factor receptor (Homo sapiens, UniProt P00533, L858R/T790M)
Sequence (P00533 25-1210 T790M/L858R limits assumed): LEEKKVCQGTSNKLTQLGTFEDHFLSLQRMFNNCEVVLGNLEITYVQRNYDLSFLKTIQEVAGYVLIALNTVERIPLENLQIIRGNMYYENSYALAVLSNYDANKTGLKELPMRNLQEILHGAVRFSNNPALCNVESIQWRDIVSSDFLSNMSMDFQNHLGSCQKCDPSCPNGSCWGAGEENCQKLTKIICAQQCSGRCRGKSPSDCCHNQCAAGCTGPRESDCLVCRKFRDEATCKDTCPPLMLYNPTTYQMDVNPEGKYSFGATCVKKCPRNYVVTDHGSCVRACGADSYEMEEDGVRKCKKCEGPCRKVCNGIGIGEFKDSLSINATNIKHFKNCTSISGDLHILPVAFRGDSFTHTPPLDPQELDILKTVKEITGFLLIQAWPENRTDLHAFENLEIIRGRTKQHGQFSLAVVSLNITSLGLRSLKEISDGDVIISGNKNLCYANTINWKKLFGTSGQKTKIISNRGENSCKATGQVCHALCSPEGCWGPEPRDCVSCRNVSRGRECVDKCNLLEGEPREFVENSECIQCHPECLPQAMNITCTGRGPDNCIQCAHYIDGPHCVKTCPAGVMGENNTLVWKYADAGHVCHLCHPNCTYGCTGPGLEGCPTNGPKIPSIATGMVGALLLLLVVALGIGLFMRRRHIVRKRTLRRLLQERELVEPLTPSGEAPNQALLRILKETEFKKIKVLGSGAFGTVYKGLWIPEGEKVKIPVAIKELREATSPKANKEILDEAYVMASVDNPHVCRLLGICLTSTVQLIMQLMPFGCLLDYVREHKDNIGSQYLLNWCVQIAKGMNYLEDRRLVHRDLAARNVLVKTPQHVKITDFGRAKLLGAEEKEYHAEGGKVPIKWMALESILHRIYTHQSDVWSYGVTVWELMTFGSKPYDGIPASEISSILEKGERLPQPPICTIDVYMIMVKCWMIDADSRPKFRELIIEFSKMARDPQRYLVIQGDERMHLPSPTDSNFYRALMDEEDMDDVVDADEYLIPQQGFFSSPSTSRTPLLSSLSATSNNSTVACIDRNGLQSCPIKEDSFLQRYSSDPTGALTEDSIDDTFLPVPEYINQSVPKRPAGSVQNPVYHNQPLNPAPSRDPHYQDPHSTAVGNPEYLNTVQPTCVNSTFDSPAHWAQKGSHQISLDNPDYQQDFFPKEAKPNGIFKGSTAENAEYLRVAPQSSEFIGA
pIC50: −log10 of the molar value.
Hi, to clarify the labels: Yes covers pIC50 from 7 upward, No covers anything below 7.

Consider the following illustrative entries.
CC(C)n1nc(N2CC(C(C)(C)O)C2)c2cnc(Nc3ccnc(-c4cnn(S(=O)(=O)C5CC5)c4)n3)cc21; Yes
CC(C)n1nc(N2CC(CO)C2)c2cnc(Nc3ccnc(-c4cnn(S(=O)(=O)C5CC5)c4)n3)cc21; Yes
CC(C)c1nn(C(C)C)c2cc(Nc3ccnc(-c4cnn(S(=O)(=O)C5CC5)c4)n3)ncc12; No
CC[C@@H](C)n1nc(N2CC(C(C)(C)O)C2)c2cnc(Nc3ccnc(-c4cnn(S(=O)(=O)C5CC5)c4)n3)cc21; Yes

Now look at this one.
Answer whether pIC50 of CC[C@H](C)n1nc(N2CC(C(C)(C)O)C2)c2cnc(Nc3ccnc(-c4cnn(S(=O)(=O)C5CC5)c4)n3)cc21 is greater than or equal to 7.
Yes
